measuredOn: T1, human Ror2 (human, UniProt Q01974 34-403, limits assumed)
T1 construct: also called hROR2; receptor tyrosine kinase-like orphan receptor 2
testDetails: ELISA, human Ror2, pH 7.4; further: unit not given here
Each entry below lists one item and its recorded Affinity ELISA pH 7.4 value.
readoutName: Affinity ELISA pH 7.4

binder | observedMeasurement
HC-N052L (antibody, V domains shown) VH: EVQLQQSGPELVKPGASVKISCKTSGYTFTEYTMHWMKQSHRKSLEWIGGILTNNGGTGYNQKFKGKATLTVDKSSSTAYMELRSLTSEDSAVYFCARGSLYSYGNSYFDYWGQGTLVTVSS VL: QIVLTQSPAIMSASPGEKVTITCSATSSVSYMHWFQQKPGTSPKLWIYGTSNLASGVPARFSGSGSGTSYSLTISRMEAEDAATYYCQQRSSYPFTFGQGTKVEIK | 0.433
HC-G099E (antibody, V domains shown) VH: EVQLQQSGPELVKPGASVKISCKTSGYTFTEYTMHWMKQSHRKSLEWIGGINTNNGGTGYNQKFKGKATLTVDKSSSTAYMELRSLTSEDSAVYFCARESLYSYGNSYFDYWGQGTLVTVSS VL: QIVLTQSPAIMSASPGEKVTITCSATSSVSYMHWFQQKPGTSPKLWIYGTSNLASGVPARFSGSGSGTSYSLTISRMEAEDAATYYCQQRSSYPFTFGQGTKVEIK | 0.421
HC-Y111T (antibody, V domains shown) VH: EVQLQQSGPELVKPGASVKISCKTSGYTFTEYTMHWMKQSHRKSLEWIGGINTNNGGTGYNQKFKGKATLTVDKSSSTAYMELRSLTSEDSAVYFCARGSLYSYGNSYFDTWGQGTLVTVSS VL: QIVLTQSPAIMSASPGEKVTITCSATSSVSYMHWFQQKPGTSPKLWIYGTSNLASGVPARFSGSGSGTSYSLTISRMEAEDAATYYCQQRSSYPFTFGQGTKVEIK | 1.4
